# PROTOCOL_NOTES: in vitro
# SETUP_CONDITIONS: human
QUANTITY_MEASURED: CC50 at 3 days (µM)
Lab book: enter the figure in µM, no units written.

If you can, please state the reported CC50 at 3 days value of CCN(Cc1cc(Nc2ncnc3ccccc23)cc(Cl)c1O)C1CCCCC1 .
36.1

* * *

# PROTOCOL_NOTES: in vitro
# SETUP_CONDITIONS: African green monkey
QUANTITY_MEASURED: CC50 at 3 days

CCCN(Cc1cc(Nc2ncnc3ccccc23)cc(Cl)c1O)C(C)C [Compound 21] | > 100 µM
CC1CC(C)CN(Cc2cc(Nc3ncnc4ccccc34)cc(Cl)c2O)C1 (centres unmarked) [Compound 24] | > 100 µM

If you can, please state the reported CC50 at 3 days value of CCN(Cc1cc(Nc2ncnc3ccccc23)cc(Cl)c1O)c1ccc(Cl)cc1 [Compound 28] .
> 100 µM

If you can, please state the reported CC50 at 3 days value of CCN(Cc1cc(Nc2ncnc3ccccc23)ccc1O)c1ccc(Cl)cc1 [Compound 26] .
> 100 µM

If you can, please state the reported CC50 at 3 days value of CC(C)N(Cc1cc(Nc2ncnc3ccccc23)ccc1O)c1ccc(Cl)cc1 [Compound 27] .
> 100 µM

* * *

# PROTOCOL_NOTES: in vitro
# SETUP_CONDITIONS: African green monkey
QUANTITY_MEASURED: CC50 at 3 days (µM)
Lab book: enter the figure in µM, no units written.

If you can, please state the reported CC50 at 3 days value of CCN(CC)Cc1cc(Nc2nc(N(C)C)nc3ccccc23)cc(Cl)c1O .
49.2

If you can, please state the reported CC50 at 3 days value of C[C@H]1C[C@H](C)CN(Cc2cc(Nc3ncnc4ccccc34)cc(Cl)c2O)C1 .
37.5

If you can, please state the reported CC50 at 3 days value of CCN(Cc1cc(Nc2ncnc3ccccc23)cc(Cl)c1O)CC(C)(C)C .
60.2

* * *

# Tested on: SARS-CoV-2 (WK-521 strain)
# SETUP_CONDITIONS: HEK293T/ACE2 (RNA), WK-521, MOI 0.1, 3 days
# key: entry, value: EC50
Lab book: enter the figure in nM, no units written.

If you can, please state the reported EC50 value of CCN(Cc1cc(Nc2ncnc3ccccc23)cc(Cl)c1O)C(C)C .
120

If you can, please state the reported EC50 value of CC(C)N(Cc1cc(Nc2ncnc3ccccc23)cc(Cl)c1O)C(C)C .
120

* * *

# key: entry, value: pEC50
# Tested on: SARS-CoV-2
# PROTOCOL_NOTES: Anti-SARS-CoV-2 RNA assay in VeroE6/TMPRSS2 cells
# Format: cell-based
# SETUP_CONDITIONS: Table 5, VeroE6/TMPRSS2 (RNA)
Remember, pEC50 is on a log scale: it is -log10 of the molar concentration.

CC(C)N(Cc1cc(Nc2ncnc3ccccc23)cc(Cl)c1O)C(C)C | 5.72

--- query ---
If you can, please state the reported pEC50 value of CCN(Cc1cc(Nc2ncnc3ccccc23)cc(Cl)c1O)C(C)C .
5.72

* * *

# key: entry, value: CC50
# Test system: VeroE6/TMPRSS2 cells
# SETUP_CONDITIONS: Table 5, VeroE6/TMPRSS2 (CPE)

CC(C)N(Cc1cc(Nc2ncnc3ccccc23)cc(Cl)c1O)C(C)C | > 100 µM

--- query ---
If you can, please state the reported CC50 value of CCN(Cc1cc(Nc2ncnc3ccccc23)cc(Cl)c1O)C(C)C .
> 100 µM

* * *

# PROTOCOL_NOTES: in vitro
# SETUP_CONDITIONS: African green monkey
QUANTITY_MEASURED: CC50

If you can, please state the reported CC50 value of CC(C)(C)[C@H](NC(=O)C(F)(F)F)C(=O)N1C[C@H]2[C@@H]([C@H]1C(=O)N[C@H](C#N)C[C@@H]1CCNC1=O)C2(C)C [Nirmatrelvir, reference compound] .
> 100 µM

* * *

# PROTOCOL_NOTES: in vitro
# SETUP_CONDITIONS: African green monkey
QUANTITY_MEASURED: CC50 at 3 days

Here's what some known entries look like.
CCNCc1cc(Nc2ncnc3ccccc23)cc(I)c1O | > 100 µM
CCN(Cc1cc(Nc2ncnc3ccccc23)cc(Cl)c1O)C1CCCCC1 | > 100 µM

--- query ---
If you can, please state the reported CC50 at 3 days value of CC(C)N(Cc1cc(Nc2ncnc3ccccc23)cc(Cl)c1O[C@H]1O[C@@H](C)[C@@H](O)[C@@H](O)[C@@H]1O)C(C)C .
> 100 µM

* * *

# System: SARS-CoV-2 (WK-521)
# PROTOCOL_NOTES: microbe, parasite or virus in culture
# Type: cell-based
# SETUP_CONDITIONS: Severe acute respiratory syndrome coronavirus 2, 72 h, read-out: EC50 (50% effective concentration, inhibits cell death induced by SARS-CoV-2 infection by 50%); VeroE6/TMPRSS2 cells, SARS-CoV-2 WK-521, MOI 0.01, 3 days; Tables 1-4
# key: entry, value: pEC50
Remember, pEC50 is on a log scale: it is -log10 of the molar concentration.

Here's what some known entries look like.
CC(C)N(Cc1cc(Nc2ncnc3ccccc23)ccc1O)c1ccc(Cl)cc1 [Compound 27] | 4.86
CCN(CC)Cc1cc(Nc2ncnc3ccccc23)cc(I)c1O [Compound 4] | 4.77

Query the reported pEC50 for SARS-CoV-2 (WK-521); item: CCN(Cc1cc(Nc2ncnc3ccccc23)ccc1O)c1ccc(Cl)cc1 [Compound 26]
4.93

Query the reported pEC50 for SARS-CoV-2 (WK-521); item: CCN(CC)Cc1cc(Nc2ncnc3ccccc23)cc(Br)c1O [Compound 3]
4.62

Query the reported pEC50 for SARS-CoV-2 (WK-521); item: C[C@H]1C[C@H](C)CN(Cc2cc(Nc3ncnc4ccccc34)cc(Cl)c2O)C1 [Compound 31]
4.71

Query the reported pEC50 for SARS-CoV-2 (WK-521); item: CCCN(Cc1cc(Nc2ncnc3ccccc23)cc(Cl)c1O)C(C)C [Compound 21]
4.93

Query the reported pEC50 for SARS-CoV-2 (WK-521); item: CC(C)N(Cc1cc(Nc2ncnc3ccccc23)cc(Cl)c1O)C(C)(C)C [Compound 22]
4.97

Query the reported pEC50 for SARS-CoV-2 (WK-521); item: CCN(CC)Cc1cc(Nc2nc(N(C)C)nc3ccccc23)cc(Cl)c1O [Compound 7]
5.14

Query the reported pEC50 for SARS-CoV-2 (WK-521); item: CC(C)N(Cc1ccncc1)Cc1cc(Nc2ncnc3ccccc23)cc(Cl)c1O [Compound 29]
4.97

Query the reported pEC50 for SARS-CoV-2 (WK-521); item: CCN(Cc1cc(Nc2ncnc3ccccc23)cc(Cl)c1O)c1ccc(F)c(Cl)c1 [Compound 30]
4.97

Query the reported pEC50 for SARS-CoV-2 (WK-521); item: CCN(CC)Cc1cc(Nc2nc(N(C)C)nc3ccccc23)cc(I)c1O [Compound 6]
4.89

* * *

# PROTOCOL_NOTES: in vitro
# SETUP_CONDITIONS: African green monkey
QUANTITY_MEASURED: CC50 at 3 days

Here's what some known entries look like.
CCN(CC)Cc1cc(Nc2ncnc3cc(OC)c(OC)cc23)cc(I)c1O | > 100 µM
C[C@@H]1CN(Cc2cc(Nc3ncnc4ccccc34)cc(Cl)c2O)[C@@H](C)CN1C (racemic) | > 100 µM

If you can, please state the reported CC50 at 3 days value of CCN(CC)Cc1cc(Nc2ncnc3ccccc23)cc(I)c1O .
> 100 µM

If you can, please state the reported CC50 at 3 days value of CCN(CC)Cc1cc(Nc2nc(N(C)C)nc3ccccc23)cc(I)c1O .
49.9 µM

If you can, please state the reported CC50 at 3 days value of CC(C)N(Cc1cc(Nc2ncnc3cc(F)ccc23)cc(Cl)c1O)C(C)C .
> 100 µM

* * *

# key: entry, value: CC50
# System: VeroE6/TMPRSS2 cells
# SETUP_CONDITIONS: read-out: CC50 (50% toxicity concentration, reduces the number of viable cells in non-infected cells by 50%); non-infected VeroE6/TMPRSS2 cells, 3 days; Tables 1-4

Here's what some known entries look like.
CCN(Cc1cc(Nc2ncnc3ccccc23)cc(Cl)c1O)C(C)C [Compound 11] | > 100 µM
CN1CCN(Cc2cc(Nc3ncnc4ccccc34)cc(I)c2O)CC1 [Compound 10] | > 100 µM
CCN(C)Cc1cc(Nc2ncnc3ccccc23)cc(I)c1O [Compound 8] | > 100 µM
CN(Cc1ccccc1)Cc1cc(Nc2ncnc3ccccc23)cc(I)c1O [Compound 9] | 38.1 µM
CC(C)N(Cc1cc(Nc2ncnc3ccccc23)cc(I)c1O)C(C)C [Compound 16] | > 100 µM

--- query ---
If you can, please state the reported CC50 value of CC(C)N(Cc1cc(Nc2ncnc3ccccc23)cc(Cl)c1O)C(C)C [Compound 15] .
> 100 µM
